TARGET DESC: T1, APC4011-AA
T1 chain: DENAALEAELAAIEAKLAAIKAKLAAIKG
TEST NAME: two-hybrid library CCmax;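 also: natural log of median RNA to DNA barcode read ratio; higher means stronger binding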
ASSAY CONDITIONS: mean of both orientations
RECORDED METRIC: interaction score

# input Please look up its interaction score: DELAAIEAEAAALEAKAAALKAEAAALEG [APC232-AA]
# output -1.21

# input Please look up its interaction score: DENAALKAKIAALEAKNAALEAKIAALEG [4H1845-AA]
# output -1.65

# input Please look up its interaction score: DKLAAIKAENAALEAKAAALKAENAALEG [APC1434-AA]
# output -1.72
